Test system: HOP-62 NSCLC
assay method text: NCI-60 one-dose screen, 48 h
condition set: 10 µM unless noted
This is part of a sample that, as a whole, favours compounds with a hit. Of some 83,000 tested, about 20% had one in any assay. Activity calls are given as the source filed them. The calls were made as follows: active = growth percent below 10; inactive = the rest.
Possible outcomes: active, inactive

1) COc1cc(C2CC(c3cccc(Nc4ccnc5cc(Cl)ccc45)c3)=NN2C=O)cc(OC)c1OC (stereo not drawn) :: active
2) COC(=O)[C@H](Cc1cn(C)cn1)NC(=O)[C@H](CC(C)C)NC(=O)Nc1cc(C(F)(F)F)cc(C(F)(F)F)c1 :: active
3) C=C(C)[C@@H]1CC[C@]2(C(=O)NC(COC(=O)C(Cl)Cl)(COC(=O)C(Cl)Cl)COC(=O)C(Cl)Cl)CC[C@]3(C)[C@H](CC[C@@H]4[C@@]5(C)CC[C@H](OC(C)=O)C(C)(C)[C@@H]5CC[C@]43C)[C@@H]12 :: inactive
4) Cc1ccsc1C(=O)CC(=O)C(F)(F)C(F)(F)C(F)(F)F :: inactive
5) CCOC(=O)Nc1ccc2nc(N3CCCCCC3)sc2c1 :: inactive
6) CCCCOc1nc2ccccc2cc1/C=C/c1cc(/C=C/c2cc3ccccc3nc2OCCCC)n(-c2ccccc2)n1 :: inactive
7) O=C(CCl)N1c2ccccc2Oc2ccc3ccccc3c21 :: active
8) Cc1cc(-c2ccc(N=Nc3c(S(=O)(=O)O)cc4cc(S(=O)(=O)O)cc(O)c4c3O)c(C)c2)ccc1N=Nc1c(S(=O)(=O)O)cc2cc(S(=O)(=O)O)cc(O)c2c1O :: inactive
9) C[N+](C)(C)CC(=O)N/N=C\c1ccco1 :: inactive
10) CCOC(=O)C1=C(C(=O)OCC)N(c2cc(OC)c(OC)c(OC)c2)C(N)=C(C#N)C1c1cc(=O)[nH]c2ccccc12 (stereo not drawn) :: inactive
11) Nc1nc(NC2CC2)cc(-c2cccc(Cl)c2Cl)n1 :: inactive
12) COc1cc([N+](=O)[O-])cc(OC)c1OC :: inactive
13) CCOC(=O)N1C2CCC(C2)N1C(=O)OCC :: inactive
14) CCCCc1nc(Cl)c(C2CC(c3ccc(S(N)(=O)=O)cc3)=NN2c2cc(Cl)cc(Cl)c2)[nH]1 (stereo not drawn) :: inactive
15) Cc1cc(N)cc(C)c1-c1c(Br)cc(N)cc1Br :: inactive
16) COc1ccc(-c2nc3c(c(-c4ccc(Cl)cc4)nn3-c3ccccc3)c(-c3ccc(O)cc3)c2C#N)cc1 :: inactive
17) COc1ccc(-c2nc(SCCC(C)C)nc(Nc3ccc(C(=O)O)cc3)c2C#N)cc1 :: inactive
18) O=[N+]([O-])c1ccc(SSc2ccc([N+](=O)[O-])cc2Cl)c(Cl)c1 :: inactive
19) CC(C)(C)c1cc(C[P+](c2ccccc2)(c2ccccc2)c2ccccc2)cc(C(C)(C)C)c1O :: active
20) COc1ccc(-c2cc(C(=O)Nc3ccc(Br)cc3)nc3[nH]c(=O)sc23)cc1 :: inactive
21) c1ccc(-c2nnn(-c3ccccc3)n2)cc1 :: inactive
22) CN1C(=O)C(C(=O)/C=C/c2ccccc2C(=O)O)C(=O)N(C)C1=O :: inactive
23) CCCNCCC(C)=O :: inactive

---

System: UACC-257 melanoma
assay method text: NCI-60 one-dose screen, 48 h
condition set: 10 µM unless noted
About 83,000 compounds went through this panel and 20% of them were active in at least one assay; those are over-represented in the sample as a whole. Active and inactive are the calls of the source. How the source made its calls: active means growth percent below 10; inactive means the rest.
Possible outcomes: active, inactive

1. COC1(OC)C2(Cl)CCC1(Cl)C(Cl)=C2Cl :: inactive
2. O=C(O/C(=C/c1ccccc1)C(F)(F)F)c1ccccc1 :: inactive
3. CC(=O)NC1C(O[C@H]2C[C@H]3[C@@H]4CC=C5C[C@@H](O)CC[C@]5(C)[C@H]4CC[C@]3(C)[C@H]2[C@H](C)C(=O)CCC(C)C)OCC(O)C1O (some centres undefined) :: active
4. Cc1ccc(C(=O)CC(=O)C(F)(F)C(F)(F)C(F)(F)F)s1 :: inactive
5. Fc1cc(-c2cnc3nonc3n2)c(Cl)cc1Cl :: inactive
6. CC(=O)Oc1c(Cl)c(Cl)c(Cl)c(Cl)c1Cl :: inactive
7. CCC1=CC2CN(C1)Cc1c([nH]c3ccccc13)[C@@](C(=O)OC)(c1cc3c(cc1OC)N(C)[C@H]1[C@@](O)(C(=O)OC)[C@H](OC(C)=O)[C@]4(CC)C=CCN5CC[C@]31[C@@H]54)C2 (some centres undefined) :: inactive
8. COc1ccc2nc3ccccc3c(NCc3ccc(Cl)cc3)c2c1 :: active
9. C[C@@H]1N=C(c2ccc3ccccc3c2)Nc2nc3ccccn3c2C1=O :: inactive
10. O=C(Nc1cccc(N=Cc2c(O)ccc3ccccc23)c1)c1ccccc1 :: inactive
11. CN(C)CCCN1c2ccccc2CCc2ccccc21 :: inactive
12. COc1cc(/C=C/c2cc(/C=C/c3ccc(O)c(OC)c3)n(C(=O)Nc3ccc(F)c(Cl)c3)n2)ccc1O :: active
13. C[Si](C)(C)C(c1ccccc1)c1ccccc1 :: inactive
14. COc1ccc2c(c1)C1=NN(C(=O)CO)[C@H](c3ccc(OC(F)(F)F)cc3)[C@@H]1CC2 :: inactive
15. COc1ccc(CNc2c3ccccc3nc3ccc(OC)cc23)cc1 :: active
16. Cc1c(C(N)=O)sc2ncn(CC(=O)NN=C3CCCCC3)c(=O)c12 :: inactive
17. CC[C@]1(O)C[C@H]2CN(CCc3c([nH]c4ccccc34)C(C(=O)OC)(c3cc4c(cc3OC)N(C)[C@H]3[C@@](O)(C(=O)OC)[C@H](OC(C)=O)[C@]5(CC)[C@@H]6C[C@@H]6CN6CC[C@]43[C@@H]65)C2)C1 (some centres undefined) :: inactive
18. O=C1C=CN2C(=O)CC=CC2[C@@H]1O (some centres undefined) :: inactive
19. CCN1C(=O)N(CC)C2C1NN=c1s/c(=C\c3ccc(Br)cc3)c(=O)n12 (centres undefined) :: inactive
